molecular target: Transient receptor potential cation channel subfamily A member 1 (Rattus norvegicus, UniProt Q6RI86); assay: Antagonist activity against rat TRPA1 expressed in HEK293 cells assessed as inhibition of AITC-induced increase in intracellular Ca2+ concentration by Fluo-4-AM dye based spectrofluorimetry
Sequence (Q6RI86 whole entry): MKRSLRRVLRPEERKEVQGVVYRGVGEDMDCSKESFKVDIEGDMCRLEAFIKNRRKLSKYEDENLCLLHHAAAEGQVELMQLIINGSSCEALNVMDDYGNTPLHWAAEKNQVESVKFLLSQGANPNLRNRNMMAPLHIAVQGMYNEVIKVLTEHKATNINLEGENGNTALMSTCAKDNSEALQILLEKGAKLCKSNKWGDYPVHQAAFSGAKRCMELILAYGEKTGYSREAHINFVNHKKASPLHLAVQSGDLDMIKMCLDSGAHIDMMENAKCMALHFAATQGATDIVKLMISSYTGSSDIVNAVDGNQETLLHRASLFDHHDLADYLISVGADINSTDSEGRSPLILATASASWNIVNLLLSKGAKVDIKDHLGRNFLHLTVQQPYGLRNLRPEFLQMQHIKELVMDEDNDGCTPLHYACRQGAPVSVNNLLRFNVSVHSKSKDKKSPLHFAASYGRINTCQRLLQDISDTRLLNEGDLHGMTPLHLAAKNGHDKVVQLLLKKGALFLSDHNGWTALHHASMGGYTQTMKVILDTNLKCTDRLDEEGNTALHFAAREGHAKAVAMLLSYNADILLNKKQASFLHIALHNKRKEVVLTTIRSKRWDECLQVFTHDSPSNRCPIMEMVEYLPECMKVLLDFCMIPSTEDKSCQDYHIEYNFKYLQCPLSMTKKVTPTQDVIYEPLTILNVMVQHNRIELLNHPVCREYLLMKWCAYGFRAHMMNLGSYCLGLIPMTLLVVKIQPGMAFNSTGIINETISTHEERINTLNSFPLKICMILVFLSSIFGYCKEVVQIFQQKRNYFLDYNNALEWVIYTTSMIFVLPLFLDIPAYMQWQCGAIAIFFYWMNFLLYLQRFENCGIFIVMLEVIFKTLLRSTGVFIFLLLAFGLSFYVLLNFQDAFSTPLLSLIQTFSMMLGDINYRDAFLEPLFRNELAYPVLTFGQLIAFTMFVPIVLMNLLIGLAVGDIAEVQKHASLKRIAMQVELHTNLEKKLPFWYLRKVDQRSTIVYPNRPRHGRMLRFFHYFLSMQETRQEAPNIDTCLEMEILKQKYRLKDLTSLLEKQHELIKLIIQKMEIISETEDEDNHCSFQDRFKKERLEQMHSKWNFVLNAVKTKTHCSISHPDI
Parameter: pIC50
Entry type: numeric. Quantity: pIC50, the -log10 of concentration in molar units.

Query :: Any idea what pIC50 was measured for CC(=O)OC/C=C(/C)CCC=C(C)C [NERYL ACETATE] ?
Result :: 4.68

Further cases:
Query :: Entry CC(C)=CCC/C(C)=C\COC(=O)c1ccc(C#N)cc1 has what pIC50?
Result :: 6.47

Query :: Given the compound CC(C)=CCC/C(C)=C/COC(=O)CCc1ccccc1 , what is its reported pIC50?
Result :: 6.77

Query :: Could you tell me which pIC50 is on file for CC(C)=CCC/C(C)=C\COC(=O)c1cccc(C)c1 ?
Result :: 6.85

Query :: For CC(C)=CCC/C(C)=C/CNC(=O)CCc1ccccc1 , what is its reported pIC50?
Result :: 5.13

Query :: If you can, please state the reported pIC50 value of CC(C)=CCC/C(C)=C/CNC(=O)Oc1ccc(C(C)(C)C)cc1 .
Result :: 7.42

Query :: Fill in: pIC50 of CC(C)=CCC/C(C)=C\COC(=O)Cc1ccc(Cl)cc1 is ___
Result :: 7.89

Query :: Any idea what its pIC50 is? The compound is CC(C)=CCC/C(C)=C/CNC(=O)NC1CCCCC1
Result :: 4.93
